ASSAY EXPLANATION: Serum stability assay (RP-HPLC)
Format: in vitro ADME
TEST PARAMETERS: mouse, time 2 (unit inferred), replicate 3, read-out: Fraction of peptide remaining, Supplementary Figure 5
No end group written: not given here.
ATTRIBUTE MEASURED: remaining at 2 h, 5 mM (%)
Write down the numeric answer in % and omit the unit.

Reported remaining at 2 h, 5 mM of PGLYYFD-NH2 (C-terminus assumed) [Pep70] : 47.2

###

ASSAY EXPLANATION: Pharmacokinetic assay in SD rats
Assay type: in vivo, rat
TEST PARAMETERS: Sprague-Dawley, rat; male SD rats, single iv dose: JT003 0.5 mg/kg, ADP355 1.0 mg/kg; plasma, LC-MS/MS; non-compartmental; Mean ± SD, n = 3-6
Non-standard residues stand in square brackets, D forms with d. Residues, ends and D or L forms follow the SMILES beside them. Nva = CCC[C@H](N)C(=O)O
Readings of MRT for the listed compounds
Write it as a number; the unit min goes unstated.

COMPOUND	UNIT SPEC	RECORDED RESULT
CCC[C@H](NC(=O)[C@@H]1CCCN1C(=O)[C@@H](NC(=O)[C@H](N)CC(N)=O)[C@@H](C)CC)C(=O)N[C@@H](CC(C)C)C(=O)N[C@@H](Cc1ccc(O)cc1)C(=O)N[C@H](CO)C(=O)N[C@@H](Cc1ccccc1)C(=O)N[C@@H](C)C(=O)N[C@H](CO)C(N)=O [ADP355] (H-[dN]IP[Nva]LY[dS]FA[dS]-NH2; N-terminus and C-terminus assumed)	min	5.4

Noted for CCC[C@H](NC(=O)[C@@H]1CCCN1)C(=O)N[C@@H](CC(C)C)C(=O)N[C@@H](Cc1ccc(O)cc1)C(=O)N[C@@H](Cc1ccc(O)cc1)C(=O)N[C@@H](Cc1ccccc1)C(=O)N[C@@H](C)C(N)=O [JT003] (H-P[Nva]LYYFA-NH2) : its MRT reads 62.4
